Reference for the values: paper PMC10266688

assay: Single dose pharmacokinetics in CD1 mice (IV, IP, PO), plasma LC-MS/MS; format: in vivo, mouse; conditions: male, CD1, mouse, in vivo, ip, 20 mg/kg
measuredAttribute: AUC(0-inf) (ng·h/mL)
Answer in ng·h/mL, number only, no unit symbol.

Exercise: Fill in the blank: the reported AUC(0-inf) of N#Cc1ccc(/C=C2/C(=O)/C(=C/c3ccc(C#N)cc3)C23CCNCC3)cc1 [Up284] is ____.
Solution: 69500

====

test: Single dose pharmacokinetics in CD1 mice (IV, IP, PO), plasma LC-MS/MS; assay type: in vivo, mouse; conditions: male, CD1, mouse, in vivo, iv, 5 mg/kg, Plasma concentration, Mean
measuredAttribute: concentration at 5 min (ng/mL)
Answer in ng/mL, number only, no unit symbol.

Exercise: Fill in the blank: the reported concentration at 5 min of `N#Cc1ccc(/C=C2/C(=O)/C(=C/c3ccc(C#N)cc3)C23CCNCC3)cc1` is ____.
Solution: 1450
